Answer each item with its documented Potency.
test: Quantitative High-Throughput drug screen in 47 multiple myeloma cell lines against the NCATS MIPE library collection: Karpas417_ECACC cell viability assay (AID 1918961); conditions: Karpas417 myeloma viability, CellTiter-Glo ATP luminescence, 48 h; note: potency is the fitted concentration of half-maximal effect
Inconclusive results are not listed. Active and inactive are the calls of the source. Calls come from the whole dose curve; as a rule, active = well fitted cell-killing curve with a large enough effect; inconclusive = small, poorly fitted or top-dose-only effect, or effect the other way; inactive = no such curve, though single readings can be large or run the other way.

Record request: Potency value, item O=C(NCCS(=O)(=O)c1ccc(C(F)(F)F)cn1)c1ccc(Cl)cc1
0.0235 µM (active)

What Potency value was documented for this molecule, COc1cc2c(cc1-c1c(C)noc1C)ncc1[nH]c(=O)n([C@H](C)c3ccccn3)c12 ?
0.148 µM (active)

Fill in the blank: the reported Potency of C[C@@H](Oc1cc(-c2cnn(C3CCNCC3)c2)cnc1N)c1c(Cl)ccc(F)c1Cl is ____.
2.64 µM (active)

Consider the molecule shown here: COc1cccc2nc(-c3cccs3)nc(NN3C(=O)C=C(C)C3=O)c12 What is its recorded Potency?
0.0526 µM (active)

Which measured Potency value corresponds to COc1c(OCCCN2CCOCC2)ccc2c3n(c(=NC(=O)c4cnc(N)nc4)nc12)CCN3 ?
0.0081 µM (active)

Given the entry CC(=O)Nc1nc(C)c(-c2ccc(Cl)c(S(=O)(=O)NCCO)c2)s1 , report its measured Potency.
0.132 µM (active)

So what's the measured Potency for this one? CNC(=O)c1ccc(N2C(=S)N(c3cnc(C#N)c(C(F)(F)F)c3)C(=O)C23CCC3)cc1F
1.05 µM (active)

Reported Potency for C1=CCOCc2cc(ccc2OCCN2CCCC2)Nc2nccc(n2)-c2cccc(c2)OCC1 : what is it?
1.66 µM (active)

What does the data say about its Potency? Entry: CN1CCC(CNc2ccc3ncc(-c4cccc(OC(F)(F)F)c4)n3n2)CC1
10.5 µM (active)

* * *

assay: qHTS drug screen for cell cycle checkpoint inhibitors in PARPi-resistant BRCA-mutant ovarian cancer cell lines. (AID 1963452); settings: PEO1/OlaR viability, CellTiter-Glo luminescence, 96 h; measured here: PEO1 parental Z-AUC; stronger effect = lower value
Could you please mark true (1) for values of Z-AUC below 0.07 and false (0) for values at or above it?

Confirm or reject: Z-AUC of CN1CCC(CNc2ccc3ncc(-c4cccc(OC(F)(F)F)c4)n3n2)CC1 lies strictly below 0.07
true (1)

For this compound, is Z-AUC lower than 0.07? Cn1c2ccccc2c2c3c(c4c5ccccc5n(CCC#N)c4c21)CNC3=O
true (1)

I'd appreciate it if you could check whether CC(C)(O)c1cc2nc(-c3cnc(N)nc3)nc(N3CCOCC3)c2s1 has Z-AUC smaller than 0.07.
true (1)

Regarding Cc1ccc(NC(=O)C2(c3ccc4c(c3)OC(F)(F)O4)CC2)nc1-c1cccc(C(=O)O)c1 , kindly confirm whether its Z-AUC is beneath 0.07.
false (0)

In plain terms, does COc1cc(-c2nn(C3CCC(N4CCN(C(C)=O)CC4)CC3)c3ncnc(N)c23)ccc1NC(=O)c1cc2ccccc2n1C (stereo not drawn) come in under 0.07 for Z-AUC?
false (0)

Does the reported Z-AUC of COc1cc(C(C)C)c2c(c1)S(=O)(=O)N(COc1cc(=O)n3cccc(OCCN4CCCCC4)c3n1)C2=O stay below 0.07?
false (0)

Please state whether Z-AUC is below 0.07 for COc1c(N2C[C@@H]3CCCN[C@H]3C2)c(F)cc2c(=O)c(C(=O)O)cn(C3CC3)c12
false (0)

Answer whether the compound CC1COC2(CCN(c3nc(=O)c4cc(C(F)(F)F)cc([N+](=O)[O-])c4s3)CC2)O1 (stereo not drawn) has Z-AUC strictly less than 0.07
false (0)

Take the compound COc1cccc2nc(-c3cccs3)nc(NN3C(=O)C=C(C)C3=O)c12 and say whether its Z-AUC is less than 0.07.
true (1)

Lab note: confirm whether the reported Z-AUC for this compound is below 0.07, equality not counting. compound: CCOC(=O)C1=C(C)NC2=C(C(=O)CC(C)(C)C2)C1c1ccc(-c2ccccc2)cc1 (stereo not drawn)
false (0)

Is the reported Z-AUC for O=C(CCCCCCC(=O)Nc1ccc([C@H]2O[C@@H](CSc3nc(-c4ccccc4)c(-c4ccccc4)o3)C[C@@H](c3ccc(CO)cc3)O2)cc1)NO strictly below 0.07?
false (0)

Is Z-AUC of CCN1CCN(Cc2ccc(-c3cc4c(N[C@H](C)c5ccccc5)ncnc4[nH]3)cc2)CC1 strictly below 0.07?
true (1)

Hello, is Z-AUC of the following compound strictly smaller than 0.07? CC(C)[C@H](C(=O)Nc1ccc(C(=O)NO)cc1)c1ccccc1
true (1)

Strictly below 0.07: is that where Z-AUC of COc1cc2c(Nc3ccc(NC(=O)c4ccccc4)cc3)ncnc2cc1OCCCN1CCOCC1 sits?
false (0)

In the record for COc1cc2c(cc1-c1c(C)noc1C)ncc1[nH]c(=O)n([C@H](C)c3ccccn3)c12 , is Z-AUC less than 0.07?
true (1)

Strictly below 0.07: is that where Z-AUC of CCn1nnc2c(N3CCOCC3)nc(-c3ccc(NC(=O)Nc4ccc(C(=O)N5CCN(C)CC5)cc4)cc3)nc21 sits?
true (1)

Is Z-AUC strictly under 0.07 for the entry O=C(O)c1ccc2c(c1)nc(Nc1cccc(Cl)c1)c1ccncc12 ?
true (1)

Lab log: compare recorded Z-AUC with 0.07; is it strictly lower for CN(C)CC(C)(C)CNc1nn2c(-c3ccccc3)nnc2cc1C1CCC1 ?
false (0)

* * *

system: Zika virus NS2B-NS3 protease (linked construct); test: 384 well plate NINDS Rhodamine confirmatory qHTS for Zika virus inhibitors (AID 1347164); settings: rhodamine-110 peptide substrate fluorescence; series mostly up to 100 µM;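 note: fluorescence from protease cleavage of Ac-LKRR-rhodamine 110 substrate; potency is the fitted concentration of half-maximal effect; nearly all actives have a fitted effect of over 65% in size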
Results filed as inconclusive are left out. Activity calls are given as the source filed them. Calls come from the whole dose curve; as a rule, active = well fitted inhibition curve with a large enough effect; inconclusive = small, poorly fitted or top-dose-only effect; inactive = no such curve, though single readings can be large or run the other way.
Task for the reader: assign each of the following compounds its reported Potency.

# input compound: COc1cc(C(=O)NS(=O)(=O)c2ccccc2C)ccc1Cc1cn(C)c2ccc(NC(=O)OC3CCCC3)cc12 ; wanted: its Potency
28.2 µM (active)

Which Potency value is on record for O=c1c2ccccc2nc2n1CCc1c-2[nH]c2ccccc12 ?
56.2 µM (active)

Which value of Potency has been reported for Cc1c(C)n(Cc2ccc(-c3ccccc3C(=O)O)cc2)c2ccc(C(=O)N[C@@H](C)c3ccc([N+](=O)[O-])cc3)cc12 in the records?
22.4 µM (active)

* * *

What Potency was measured for each of the following?
test: qHTS of pediatric cancer cell lines to identify multiple opportunities for drug repurposing: Primary screen for LAN-5 cells (AID 1347100); conditions: LAN-5 neuroblastoma viability, CellTiter-Glo luminescence, 48 h; series mostly up to 46 µM; note: potency is the fitted concentration of half-maximal effect
Inconclusive results are not listed. Active and inactive are the calls of the source. Calls come from the whole dose curve; as a rule, active = well fitted cell-killing curve with a large enough effect; inconclusive = small, poorly fitted or top-dose-only effect; inactive = no such curve, though single readings can be large or run the other way.

Fill blank: measured Potency of the compound COc1cc(C)c(Sc2cnc(NC(=O)c3ccc(CNC(C)C(C)C)cc3)s2)cc1C(=O)N1CCN(C(C)=O)CC1 (stereo not given) is ____.
2640 nM (active)

Item under review: Cc1nc(N)ncc1-c1nc(N2CCOCC2)c2sc(C(C)(C)O)cc2n1 . Reported Potency?
1320 nM (active)

I would be grateful if you could share the reported Potency for CC(C)(C)OC(=O)Nc1ccc(-c2cc(C(=O)NCCCCCCC(=O)NO)no2)cc1 .
1660 nM (active)

Fill in: Potency of Cn1c2ccccc2c2c3c(c4c5ccccc5n(CCC#N)c4c21)CNC3=O is ___
5900 nM (active)

# query: Potency of entry CC(=O)c1c(C)c2cnc(Nc3ccc(N4CCNCC4)cn3)nc2n(C2CCCC2)c1=O
18700 nM (active)

* * *

test: qHTS drug screen for cell cycle checkpoint inhibitors in PARPi-resistant BRCA-mutant ovarian cancer cell lines. (AID 1963452); conditions: PEO1/OlaR viability, CellTiter-Glo luminescence, 96 h; measured here: PEO1 parental Z-AUC; stronger effect = lower value
Consider the following compounds; for each one, report its Z-AUC.
When you answer, write just the number.

I am curious: what Z-AUC value has been reported for C=C1C(=CC=C2CCC[C@]3(C)[C@@H]([C@H](C)C=C[C@H](C)C(C)C)CC[C@@H]23)C[C@@H](O)C[C@@H]1O ?
0.5

Param item = O=C(O)CCCc1c[nH]c2ccccc12 ; retrieve measured Z-AUC.
0.661

Would you kindly share the measured Z-AUC for O=c1[nH]c(=O)n(C2CCCO2)cc1F (stereo not given) ?
1.12

Fill in the blank: the reported Z-AUC of Cc1ccc(S(=O)(=O)Nc2cc(Cl)ccc2C(=O)Nc2nc(-c3ccccc3)cs2)cc1 is ____.
-0.778

I am curious: what Z-AUC value has been reported for Cc1c(CN2CCN(S(C)(=O)=O)CC2)sc2c(N3CCOCC3)nc(-c3cnc(N)nc3)nc12 ?
0.564

* * *

experiment: qHTS of pediatric cancer cell lines to identify multiple opportunities for drug repurposing: Confirmatory screen for NB1643 cells (AID 1347109); conditions: NB1643 neuroblastoma cell viability; series mostly up to 45.9 µM; note: potency is the fitted concentration of half-maximal effect; nearly all actives have a fitted effect of over 45% in size
Inconclusive results are not listed. Calls of active or inactive are those of the source. The call rests on the fitted dose curve; in most records, active means well fitted cell-killing curve with a large enough effect; inconclusive means small, poorly fitted or top-dose-only effect, or effect the other way; inactive means no such curve, though single readings can be large or run the other way.
PROPERTY LABEL: Potency

# get_value(readout='Potency', item= COc1cccc2nc(-c3cccs3)nc(NN3C(=O)C=C(C)C3=O)c12 )
657 nM (active)

Would you mind telling me what Potency value was observed for COC(=O)Nc1nc2ccc(C(=O)c3ccc(F)cc3)cc2[nH]1 ?
2330 nM (active)

I have this molecule here, COc1cc2c(Oc3ccc(-c4cnc(Nc5ccc(F)cc5)n(C)c4=O)cc3F)ccnc2cc1OCCCN1CCOCC1 , and I need its recorded Potency.
11700 nM (active)

Potency for CNC(=O)CN1CCC(Oc2cc3c(Nc4cccc(Cl)c4F)ncnc3cc2OC)CC1 ?
1040 nM (active)

May I ask what Potency has been recorded for Cc1c(CN2CCN(S(C)(=O)=O)CC2)sc2c(N3CCOCC3)nc(-c3cnc(N)nc3)nc12 ?
1310 nM (active)

Any idea what its Potency is? The molecule is CC(=O)Nc1nc(C)c(-c2ccc(Cl)c(S(=O)(=O)NCCO)c2)s1
16500 nM (active)

Reported Potency, molecule O=C(O)c1ccc2cc(-c3ccc(O)c(C45CC6CC(CC(C6)C4)C5)c3)ccc2c1 : ____
2930 nM (active)
